Origin of measurements: the kinase profiling compilation of Christmann-Franck et al. (2016)

Test system: EGFR (human), P00533 [L861Q]
test-details: KINOMEscan competition binding
condition-context: compound 10.0 µM
Measured kinase still bound, per cent of control, listed per entry for reference.
Numbers only; they are read as %.

{"columns": ["smiles-string", "result-value"],
 "data": [
  ["COc1cc2ncnc(Nc3cccc(Cl)c3)c2cc1OC", 0.1],
  ["CCN1CCN(Cc2ccc(NC(=O)c3ccc(C)c(/C=C/c4cnc5[nH]ccc5c4OC)c3)cc2C(F)(F)F)CC1", 0],
  ["Cc1ccc2nc(NCCN)c3ncc(C)n3c2c1", 100],
  ["COc1cc2c(Nc3ccc(NC(=O)c4ccccc4)cc3)ncnc2cc1OCCCN1CCOCC1", 6.2],
  ["O=c1[nH]c2ccccc2n1C1CCN(Cc2ccc(-c3nc4cc5[nH]cnc5cc4nc3-c3ccccc3)cc2)CC1", 66],
  ["CN(C)C/C=C/C(=O)Nc1cccc(Nc2ncc3c(n2)N(C)c2ccccc2C(=O)N3C)c1", 73],
  ["C=CC(=O)Nc1cc(-n2c(=O)ccc3cnc4ccc(-c5cn[nH]c5)cc4c32)ccc1C", 22],
  ["CNC(=O)Nc1ccc(-c2nc(N3CC4CCC(C3)O4)c3cnn(C4CCC5(CC4)OCCO5)c3n2)cc1", 64]
]}

EGFR (human), P00533 [L861Q] / kinase still bound, per cent of control / `CN(C)C/C=C/C(=O)Nc1ccc(C(=O)Nc2cccc(Nc3nccc(-c4cccnc4)n3)c2)cc1` : value?
56

====

target-system: UniProt Q9Y2H1
Sequence (Q9Y2H1 whole entry, looked up): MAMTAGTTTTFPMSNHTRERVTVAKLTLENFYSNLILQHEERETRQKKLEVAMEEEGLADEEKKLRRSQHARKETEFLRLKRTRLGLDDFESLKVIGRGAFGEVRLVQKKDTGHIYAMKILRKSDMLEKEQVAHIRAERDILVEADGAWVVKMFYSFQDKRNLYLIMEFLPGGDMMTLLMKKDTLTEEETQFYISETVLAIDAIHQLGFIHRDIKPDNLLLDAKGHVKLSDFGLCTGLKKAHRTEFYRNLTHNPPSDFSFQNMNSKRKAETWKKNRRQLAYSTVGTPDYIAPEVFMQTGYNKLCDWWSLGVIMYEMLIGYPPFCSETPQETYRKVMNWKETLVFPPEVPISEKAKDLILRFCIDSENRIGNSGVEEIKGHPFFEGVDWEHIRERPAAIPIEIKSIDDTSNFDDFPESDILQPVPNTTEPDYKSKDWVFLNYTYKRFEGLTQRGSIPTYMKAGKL
test-details: KINOMEscan competition binding
condition-context: compound 10.0 µM
reported-metric: kinase still bound, per cent of control
Include the unit after the number when you answer.

Guide cases for kinase still bound, per cent of control, answers given:
{"columns": ["molecule", "kinase still bound, per cent of control"],
 "data": [
  ["CC[C@@H]1C(=O)N(C)c2cnc(Nc3ccc(C(=O)NC4CCN(C)CC4)cc3OC)nc2N1C1CCCC1", "100%"],
  ["O=C(NC1CC1)c1cccc(-c2ccc3c(NC(=O)C4CC4)n[nH]c3c2)c1", "96%"],
  ["Cc1ccc(C(=O)Nc2cccc(C(F)(F)F)c2)cc1Nc1cncc(C(N)=O)c1", "100%"],
  ["Cn1c(=O)n(-c2ccc(C(C)(C)C#N)cc2)c2c3cc(-c4cnc5ccccc5c4)ccc3ncc21", "100%"]
]}

Consider the record given below.
I have this molecule here, COc1cc(C(=O)NC2CCN(C)CC2)ccc1Nc1ncc2c(n1)N(C1CCCC1)C(C)CC(=O)N2C (stereo not given) , and I need its recorded kinase still bound, per cent of control.
100%

====

target-system: EGFR (human) (UniProt P00533)
test-details: KINOMEscan competition binding
condition-context: compound 10.0 µM
reported-metric: kinase still bound, per cent of control (%)
Numbers only; they are read as %.

Guide cases for kinase still bound, per cent of control, answers given:
{"columns": ["compound", "target-system", "reported-metric", "result-value"],
 "data": [
  ["O=C(O)c1ccc(Nc2ncc3c(n2)-c2ccc(Cl)cc2C(c2c(F)cccc2F)=NC3)cc1", "EGFR (human) (UniProt P00533)", "kinase still bound, per cent of control", 43],
  ["Cn1c(=O)n(-c2ccc(C(C)(C)C#N)cc2)c2c3cc(-c4cnc5ccccc5c4)ccc3ncc21", "EGFR (human) (UniProt P00533)", "kinase still bound, per cent of control", 100],
  ["COc1cc(C(=O)NC2CCN(C)CC2)ccc1Nc1ncc2c(n1)N(C1CCCC1)C(C)CC(=O)N2C (centres undefined)", "EGFR (human) (UniProt P00533)", "kinase still bound, per cent of control", 100],
  ["CCN1CCN(Cc2ccc(Nc3ncc4c(n3)N(C)c3ccccc3C(=O)N4C)cc2C(F)(F)F)CC1", "EGFR (human) (UniProt P00533)", "kinase still bound, per cent of control", 73],
  ["O=C(NC1CC1)c1cccc(-c2ccc3c(NC(=O)C4CC4)n[nH]c3c2)c1", "EGFR (human) (UniProt P00533)", "kinase still bound, per cent of control", 96],
  ["O=C1Nc2ccc(I)cc2/C1=C/c1cc(Br)c(O)c(Br)c1", "EGFR (human) (UniProt P00533)", "kinase still bound, per cent of control", 56],
  ["C=CC(=O)Nc1cccc(Oc2nc(Nc3ccc(N4CCN(C)CC4)cc3OC)ncc2Cl)c1", "EGFR (human) (UniProt P00533)", "kinase still bound, per cent of control", 0.1],
  ["C=CC(=O)Nc1cccc(Nc2nc(N[C@H]3CC[C@H](N(C)C)CC3)nc3c2ncn3C(C)C)c1", "EGFR (human) (UniProt P00533)", "kinase still bound, per cent of control", 100]
]}

Consider the record given below.
I have this compound here, `C=CC(=O)Nc1cc(NC(=O)c2ccc(C)c(NC(=O)c3ccno3)c2)cc(C(F)(F)F)c1` , and I need its recorded kinase still bound, per cent of control.
79
